Reference source: patent US7307171B2

Can you tell me pIC50 for the items I'm about to list?
Test system: barnacle (Balanus amphitrite) cyprid larvae
Test: Barnacle cyprid larval 24 hour settlement inhibition assay
Assay type: in vivo
Conditions: cyprid larvae, 24 hr exposure, probit analysis; interval in parentheses
pIC50: −log10 of the molar value.

Exam item: Entry under review: c1cncc(-c2ccncc2)c1 [3,4′-BP, 3,4′-bipyidyl] . Reported pIC50?
Marked response: < 4.00

Exam item: Quick check: pIC50 of Clc1cccnc1-c1cccnc1 [3-Chloro-2,3′-BP, reference compound] ?
Marked response: < 4.00

----------
Experiment: Barnacle naupliar larval 24 hour toxicity (mortality) assay
Assay type: in vivo, Balanus amphitrite
Details: Balanus amphitrite, in vivo, other: larvae exposed in sea water solution of the compound; second naupliar stage, 24 hr mortality; interval in parentheses; read-out: Barnacle Larvae Lethal Median Conc. LC50
Assignment: determine reported LC50 at 24 h for the given molecules.
Answer with a number only, understood to be in µM.

Exam item: Look up LC50 at 24 h for this molecule: c1cncc(-c2cccnc2)c1
Marked response: 10

Exam item: Please give the measured LC50 at 24 h for this molecule: c1ccc(-c2cccnc2)nc1
Marked response: 1.9

Exam item: Given c1cncc(C2=NCCCC2)c1 , state its recorded LC50 at 24 h.
Marked response: 2

Exam item: Which LC50 at 24 h value belongs to c1ccc(-c2ccccn2)nc1 ?
Marked response: 4.4

----------
System: crayfish Procambarus clarkii
Settings: Table 2, no footnote; paralysis 15 min after injection
Criterion met means recorded Crayfish Paralysis PD50 is 3 µg or above; Criterion not met means it is below 3 µg.

Exam item: Determine whether this compound has Crayfish Paralysis PD50 no lower than 3 µg: Cc1cncc(-c2ccccn2)c1
Marked response: Criterion met

Exam item: hey, is Crayfish Paralysis PD50 for this one >= 3 µg? Cc1ccc(-c2ccccn2)cn1
Marked response: Criterion met

Exam item: Does the reported Crayfish Paralysis PD50 for c1ccc(-c2cccnc2)nc1 fall at or above the 3 µg mark?
Marked response: Criterion not met

Exam item: API: above_or_equal(metric=Crayfish Paralysis PD50, cutoff=3 µg) for item Cc1ccc(-c2cccnc2)nc1
Marked response: Criterion not met

Exam item: Tell me whether Crayfish Paralysis PD50 is at least 3 µg here: Cc1ccnc(-c2cccnc2)c1
Marked response: Criterion met

Exam item: For this compound, is measured Crayfish Paralysis PD50 3 µg or higher? Cc1cccc(-c2cccnc2)n1
Marked response: Criterion not met

----------
Experiment: Barnacle naupliar larval 24 hour toxicity (mortality) assay
Type: in vivo, Balanus amphitrite
Conditions: Balanus amphitrite, in vivo, other: larvae exposed in sea water solution of the compound; second naupliar stage, 24 hr mortality; interval in parentheses; read-out: Barnacle Larvae Lethal Median Conc. LC50
attribute measured: LC50 at 24 h

Exam item: Could you share which LC50 at 24 h value was measured for c1cnc2c(c1)ccc1ccncc12 [1,9-phenanthroline] ?
Marked response: > 50 µM

Exam item: Given c1cncc(C2=NCCCN2)c1 [PTHP, reference compound] , state its recorded LC50 at 24 h.
Marked response: > 100 µM

Exam item: Which measured LC50 at 24 h value corresponds to c1ccc(-c2ccncc2)nc1 [2,4′-BP, 2,4′-bipyridyl] ?
Marked response: > 50 µM

Exam item: What LC50 at 24 h value was documented for this compound, c1cnc2c(c1)ccc1ncccc12 [1,7-phenanthroline, reference compound] ?
Marked response: > 50 µM

Exam item: Which LC50 at 24 h value is on record for c1cnc(-c2cccnc2)nc1 [2-(3-pyridyl)-pyrimidine] ?
Marked response: > 50 µM
